System: EfPiwi piRISC loaded with L1MC piRNA (26 nt)
protocol: pre-steady-state target cleavage rate (min^-1); auxiliary factor: 500 nM Ephydatia muelleri Gtsf1; guide: L1MC piRNA 5'p-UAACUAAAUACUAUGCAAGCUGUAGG; MIWI and MILI are mouse PIWI proteins and EfPiwi is from a freshwater sponge; tags in brackets are library labels; higher = faster piRNA-guided slicing of the target
I'd be grateful if you could share measured pre-steady-state target cleavage rate for these entries.
Numbers only.

Check out these entries, answers already filled in.
sequence_data | endpoint_label | quantitative_readout
UCCUGGAUCAGCAUGCAUAGUAAUUAGUUA | pre-steady-state target cleavage rate | 0.00437
UCCUGGAACAGCUUGCAUAGUAUUUCGUUA | pre-steady-state target cleavage rate | 0.0025

Okay, here is my list. What is pre-steady-state target cleavage rate for each of these?
1. UCCUGGAAGUCCUUGCAUAGUAUUUAGUUA
2. UCCUGGAACAGCUUGCAUACUAAUUAGUUA
3. UCCUGGAUCUAGCUUGCAUAGUAUUUAGUUA
4. UCCUCCUACAGCUUGCAUAGUGAUUUAGUUA
5. UCCUCCUUCAGCUUCCAUAGUAUUUAGUUA

A.
[0.0092, 0.00305, 0.0755, 0.00415, 0.00448]
